Let's look at some variants and their measured polymerase ribozyme fitness (log ratio).
B1: TPR 5TU (parent)
chain: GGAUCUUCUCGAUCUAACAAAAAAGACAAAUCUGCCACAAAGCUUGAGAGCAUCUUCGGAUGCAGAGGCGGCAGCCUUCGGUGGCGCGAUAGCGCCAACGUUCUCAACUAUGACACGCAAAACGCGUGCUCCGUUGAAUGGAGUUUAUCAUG

Variants of: B1
assay_text: polymerase ribozyme fitness, log enrichment relative to wild type (log ratio); higher = more active; in vitro selection for triplet polymerase activity
Fewer inactive variants are shown than the library holds.
Quick one: just the number, no unit, thanks!

mutation_key="A22U G46A A115G" number=-1.54
mutation_key="A20G C54G C96U" number=-2
mutation_key="A17U C129G" number=-2.62
mutation_key="G50A A60C G86A" number=-3.81

Would you kindly look at the next entry?
Request: Give the reported polymerase ribozyme fitness (log ratio) for this variant. U55G U82A U148C
Response: -2.51

Hello, the source for this data is the RNAGym collection of RNA variant scans (doi:10.1073/pnas.2313332121), in case you need it.
